The measurements presented in this section are drawn from the RNAGym collection of RNA variant scans (doi:10.1101/gr.219683.116).

B1: mRNA-splicing (parent)
chain: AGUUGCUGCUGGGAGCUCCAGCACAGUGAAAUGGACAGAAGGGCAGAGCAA

variants of: B1; assay: exon inclusion enrichment index; higher = more inclusion; WT1 exon 5 minigene, HEK293

>  <MUTANT NAME>
U3A U4C G5C C6A U7C G8A U10A

>  <exon inclusion enrichment index>
0.389

$$$$
>  <MUTANT NAME>
C6A U7C C9A U10C G11A

>  <exon inclusion enrichment index>
1.84

$$$$
>  <MUTANT NAME>
G5U G8U C9U G21U C22G

>  <exon inclusion enrichment index>
0.103

$$$$
>  <MUTANT NAME>
G5A C6U U7A G8U C9A G15C C16G

>  <exon inclusion enrichment index>
0.0723

$$$$
>  <MUTANT NAME>
C6A U7A

>  <exon inclusion enrichment index>
0.261

$$$$
>  <MUTANT NAME>
G5C C6G U7C U10C G13C

>  <exon inclusion enrichment index>
1.53

$$$$
